Experimental System: muscarinic M1 receptor (Rattus norvegicus)
Construct: Membranes from frozen rat brains excluding cerebellum were thawed; from tissue; host or cells: rat brain (excluding cerebellum) membranes
Experiment: [3H]Pirenzepine Binding Assay, rat brain membranes
Test Settings: ratio of respective Ki values; greater than 1 = DAT selective
Measurement Label: Binding selectivity DAT/M1
Reply with the value as a number alone.

Examples from the recorded data:
[[record]]
compound = "COC(=O)[C@@H]1C2CCC(C[C@@H]1OC(c1ccc(F)cc1)c1ccc(F)cc1)N2C (stereo partly shown)"
recorded_number = 45

[[record]]
compound = "C=C[C@@H]1C2CCC(C[C@@H]1OC(c1ccc(F)cc1)c1ccc(F)cc1)N2C (stereo partly shown)"
recorded_number = 90


The compound listed as CCCCN1C2CCC1[C@@H](C(=O)OCC)[C@@H](OC(c1ccc(F)cc1)c1ccc(F)cc1)C2 (stereo partly shown) has a reported Binding selectivity DAT/M1 of 391

So, "C=CCN1[C@@H]2CC[C@H]1C[C@@H](OC(c1ccc(F)cc1)c1ccc(F)cc1)C2" ? Its Binding selectivity DAT/M1 was 20

====

Experimental System: NET (Rattus norvegicus)
Sequence (Q63380 1-617): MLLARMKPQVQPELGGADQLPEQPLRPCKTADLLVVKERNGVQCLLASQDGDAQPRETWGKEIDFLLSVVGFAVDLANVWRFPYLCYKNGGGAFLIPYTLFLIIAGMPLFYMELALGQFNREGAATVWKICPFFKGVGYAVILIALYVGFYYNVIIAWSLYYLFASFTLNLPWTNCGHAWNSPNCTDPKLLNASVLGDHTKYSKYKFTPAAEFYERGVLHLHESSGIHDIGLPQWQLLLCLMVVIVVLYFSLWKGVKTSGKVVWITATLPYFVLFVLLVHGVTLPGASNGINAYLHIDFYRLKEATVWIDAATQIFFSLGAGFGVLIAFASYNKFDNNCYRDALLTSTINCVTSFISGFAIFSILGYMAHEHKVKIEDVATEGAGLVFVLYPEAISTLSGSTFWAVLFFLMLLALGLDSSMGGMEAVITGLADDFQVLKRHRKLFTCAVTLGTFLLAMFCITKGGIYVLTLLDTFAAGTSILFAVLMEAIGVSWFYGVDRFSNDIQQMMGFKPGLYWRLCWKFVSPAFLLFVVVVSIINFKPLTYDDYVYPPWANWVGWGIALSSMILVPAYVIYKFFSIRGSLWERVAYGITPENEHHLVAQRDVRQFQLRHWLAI
Type: binding
Test Settings: read-out: NET [3H]nisoxetine Ki ± SEM; rat brain membranes; incubation time 1 h
Catalogue of compounds with associated pKi
Interpret pKi as the negative base-10 log of the concentration measured in mol/L.

[[record]]
compound = "COC(=O)[C@@H]1C2CCC(C[C@@H]1OC(c1ccc(F)cc1)c1ccc(F)cc1)N2C (some centres unmarked)"
measurement_label = "pKi"
recorded_number = 6.57


Then this compound:
Value (pKi, NET (Rattus norvegicus)) for record CCOC(=O)[C@@H]1C2CCC(C[C@@H]1OC(c1ccc(F)cc1)c1ccc(F)cc1)N2C (some centres unmarked) = 6.20

====

// Ki lookup, one value per entry
Experimental System: DAT (Rattus norvegicus, UniProt P23977)
Construct: their brains removed to an ice-cooled dish for dissection of the caudate putamen; from tissue; host or cells: rat caudate putamen homogenate
Sequence (P23977 whole entry): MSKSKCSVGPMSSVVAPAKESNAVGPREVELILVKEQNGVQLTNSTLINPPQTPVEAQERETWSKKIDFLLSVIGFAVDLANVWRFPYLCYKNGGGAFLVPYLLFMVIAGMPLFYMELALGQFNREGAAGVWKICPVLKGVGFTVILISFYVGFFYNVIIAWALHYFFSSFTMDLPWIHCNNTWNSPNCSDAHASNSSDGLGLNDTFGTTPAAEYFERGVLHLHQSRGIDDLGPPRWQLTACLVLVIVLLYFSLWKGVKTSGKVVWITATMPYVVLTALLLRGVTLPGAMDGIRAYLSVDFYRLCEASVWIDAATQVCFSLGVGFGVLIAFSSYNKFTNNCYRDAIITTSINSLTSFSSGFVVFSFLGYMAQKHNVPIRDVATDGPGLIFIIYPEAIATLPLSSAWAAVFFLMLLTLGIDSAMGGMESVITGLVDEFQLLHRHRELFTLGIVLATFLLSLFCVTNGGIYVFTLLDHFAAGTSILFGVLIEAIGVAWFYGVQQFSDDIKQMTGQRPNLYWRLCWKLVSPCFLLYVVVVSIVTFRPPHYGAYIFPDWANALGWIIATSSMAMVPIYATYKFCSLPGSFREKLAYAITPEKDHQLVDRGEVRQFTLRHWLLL
Experiment: biochemical
Type: binding
Test Settings: read-out: DAT [3H]WIN 35,428 Ki ± SEM
Express the reported value numerically, then name its unit.

[[record]]
compound = "C=C[C@@H]1C2CCC(C[C@@H]1OC(c1ccc(F)cc1)c1ccc(F)cc1)N2C (stereo partly shown)"
result = "1.81 nM"

[[record]]
compound = "COC(=O)CC[C@@H]1C2CCC(C[C@@H]1OC(c1ccc(F)cc1)c1ccc(F)cc1)N2C (stereo partly shown)"
result = "3.74 nM"


Kindly note the recorded Ki for COC(=O)[C@@H]1C2CCC(C[C@@H]1OC(c1ccc(F)cc1)c1ccc(F)cc1)N2C (stereo partly shown) , which is 2.94 nM

For this compound ( C=CCN1C2CCC1[C@@H](C(=O)OCC)[C@@H](OC(c1ccc(F)cc1)c1ccc(F)cc1)C2 (stereo partly shown) ), measured Ki is 11 nM

====

Experimental System: muscarinic M1 receptor (Rattus norvegicus, UniProt P08482)
Construct: Membranes from frozen rat brains excluding cerebellum were thawed; from tissue; host or cells: rat brain (excluding cerebellum) membranes
Sequence (P08482 1-460): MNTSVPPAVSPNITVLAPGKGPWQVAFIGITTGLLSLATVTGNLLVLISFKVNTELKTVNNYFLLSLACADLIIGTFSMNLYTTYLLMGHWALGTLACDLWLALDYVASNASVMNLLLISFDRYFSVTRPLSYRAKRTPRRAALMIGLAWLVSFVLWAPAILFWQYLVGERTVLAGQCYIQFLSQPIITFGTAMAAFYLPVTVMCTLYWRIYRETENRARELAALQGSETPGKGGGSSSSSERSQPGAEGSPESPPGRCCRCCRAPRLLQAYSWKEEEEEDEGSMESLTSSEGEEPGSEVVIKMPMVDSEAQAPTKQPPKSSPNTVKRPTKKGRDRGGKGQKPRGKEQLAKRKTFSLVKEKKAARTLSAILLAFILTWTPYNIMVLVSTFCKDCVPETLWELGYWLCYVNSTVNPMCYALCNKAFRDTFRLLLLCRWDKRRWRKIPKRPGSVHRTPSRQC
Experiment: [3H]Pirenzepine Binding Assay, rat brain membranes
Test Settings: rat brain membranes; read-out: M1 [3H]pirenzepine Ki ± SEM
Each entry below carries its reported Ki.
Express the result in nM but write the number alone.

Some solved entries appear below for comparison.
[[record]]
compound = "CN1C2CCC1[C@@H](CO)[C@@H](OC(c1ccc(F)cc1)c1ccc(F)cc1)C2 (stereo partly drawn)"
experimental_system = "muscarinic M1 receptor (Rattus norvegicus, UniProt P08482)"
measurement_label = "Ki"
recorded_number = 109

[[record]]
compound = "C=C[C@@H]1C2CCC(C[C@@H]1OC(c1ccc(F)cc1)c1ccc(F)cc1)N2C (stereo partly drawn)"
experimental_system = "muscarinic M1 receptor (Rattus norvegicus, UniProt P08482)"
measurement_label = "Ki"
recorded_number = 163


Next up:
The reported Ki value, muscarinic M1 receptor (Rattus norvegicus, UniProt P08482), for COC(=O)/C=C/[C@@H]1C2CCC(C[C@@H]1OC(c1ccc(F)cc1)c1ccc(F)cc1)N2C (stereo partly drawn) reads 1380
